target.or.system: HLA-B*07:02
test.details: IEDB peptide-MHC binding, purified MHC/competitive/radioactivity; bounds were set here for any values at or beyond the usual limits of such assays
test.context: source organism: Bordetella pertussis
pIC50: −log10 of the molar value.
# pIC50 per record follows
measurement.type: pIC50

1. ARRSRVRAL: 4.80
2. TVLAAGAGL: 4.16
3. NPYTSRRSV: 6.56

====

target.or.system: HLA-A*02:01
test.details: IEDB peptide-MHC binding, purified MHC/competitive/radioactivity; bounds were set here for any values at or beyond the usual limits of such assays
test.context: source organism: Bordetella pertussis
Below is a list of entries, each paired with its recorded IC50 value.
measurement.type: IC50 (nM)

1) RKMLYLIYV: 5450
2) SLFAILSST: 1420
3) KLLHHILPI: 312

====

target.or.system: HLA-B*35:01
test.details: IEDB peptide-MHC binding, purified MHC/competitive/radioactivity; bounds were set here for any values at or beyond the usual limits of such assays
test.context: source organism: Bordetella pertussis
measurement.type: IC50 (µM)

1. EVRADNNFY: 25.6
2. DPPATVYRY: 7.2
3. PKPKPKPKP: 64.9
4. ADDPPATVY: 69.9
5. EPVKLTLTG: 13.7

====

target.or.system: HLA-B*57:01
test.details: IEDB peptide-MHC binding, purified MHC/competitive/radioactivity; bounds were set here for any values at or beyond the usual limits of such assays
test.context: source organism: Bordetella pertussis
measurement.type: IC50 (µM)

1) TSRRSVASI: 4.54
2) RVRALSWLL: 2.12
3) KQADRDFVW: 11.3

====

target.or.system: HLA-B*53:01
test.details: IEDB peptide-MHC binding, purified MHC/competitive/radioactivity; bounds were set here for any values at or beyond the usual limits of such assays
test.context: source organism: Bordetella pertussis
pIC50: −log10 of the molar value.
measurement.type: pIC50

1. DPPATVYRY: 4.28

====

# maps each entry to its pIC50
target.or.system: HLA-B*44:03
test.details: IEDB peptide-MHC binding, purified MHC/competitive/radioactivity; bounds were set here for any values at or beyond the usual limits of such assays
test.context: source organism: Bordetella pertussis
pIC50: −log10 of the molar value.
measurement.type: pIC50

1) PGPQPPQPQ: 4.31
2) TEVYLEHRM: 5.57
